# protocol-details: self-splicing fitness, log relative to wild type (ln ratio); higher = more splicing; Tetrahymena group I intron in knt gene, E. coli kanamycin selection, DiMSum; sequences stand for … in CUCUCU…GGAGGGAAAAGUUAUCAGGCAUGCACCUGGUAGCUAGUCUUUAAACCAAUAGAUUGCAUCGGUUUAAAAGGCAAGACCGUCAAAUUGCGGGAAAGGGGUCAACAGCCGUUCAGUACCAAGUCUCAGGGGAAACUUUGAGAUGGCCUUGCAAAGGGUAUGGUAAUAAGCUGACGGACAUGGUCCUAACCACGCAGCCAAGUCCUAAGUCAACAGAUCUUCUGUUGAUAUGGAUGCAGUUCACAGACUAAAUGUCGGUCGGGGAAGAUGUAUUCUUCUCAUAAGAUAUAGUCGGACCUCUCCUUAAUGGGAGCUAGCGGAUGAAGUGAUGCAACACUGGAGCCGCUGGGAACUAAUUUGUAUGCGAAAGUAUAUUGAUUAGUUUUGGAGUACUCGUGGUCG;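 further: selection with 25 µg/mL kanamycin versus none on LB agar overnight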
# experimental-context: 37 °C
result-type: self-splicing fitness (ln)
Give a plain numeric answer without units written out.

CUUCAGCAAUAUUACGUGAG ... -0.0413

## Input Reported self-splicing fitness (ln), sequence UCACAGCAAUAUUACGCCCA : ____
## Output 0.000225

## Input Another sequence: UUUGAGCAAUAUUACGGCGA
## Output -0.162

## Input Another sequence: ACAAAGCAAUAUUACGGCAA
## Output -0.252
